From: the Immune Epitope Database (IEDB)

Target: HLA-B*40:01
Experiment: IEDB peptide-MHC binding, purified MHC/direct/fluorescence; filed as Kd, often an IC50 or EC50 that approximates it; bounds were set here for any values at or beyond the usual limits of such assays
Conditions: source organism: Influenza A virus (A/chicken/Vietnam/5/2003(H5N1))
pKd: −log10 of the molar value.
readout: pKd

Asked: Looking for the measured pKd of `QTYDWTLNR` , can you help?
Given back: ≤ 4.70

###

Molecular target: HLA-B*48:01
Test: IEDB peptide-MHC binding, purified MHC/direct/fluorescence; filed as Kd, often an IC50 or EC50 that approximates it; bounds were set here for any values at or beyond the usual limits of such assays
Conditions: source organism: Orthohantavirus seoulense
pKd: −log10 of the molar value.
readout: pKd

Asked: Quick one: pKd of `KPKHLYVSM` ?
Given back: ≤ 4.70

###

Target: HLA-A*68:02
Assay: IEDB peptide-MHC binding, purified MHC/competitive/fluorescence; filed as Kd, often an IC50 or EC50 that approximates it; bounds were set here for any values at or beyond the usual limits of such assays
Conditions: source organism: Cryptosporidium parvum Iowa II
pKd: −log10 of the molar value.
readout: pKd

Asked: What value of measured pKd is listed for `RLKHIFLIF` ?
Given back: ≤ 4.70

###

Target: HLA-A*69:01
Test: IEDB peptide-MHC binding, purified MHC/direct/fluorescence; filed as Kd, often an IC50 or EC50 that approximates it; bounds were set here for any values at or beyond the usual limits of such assays
Conditions: source organism: Marburg virus - Musoke, Kenya, 1980
pKd: −log10 of the molar value.
readout: pKd

AEILSGRVI: ≤ 4.70
QVGIFLICK: ≤ 4.70

Now look at this one.
Asked: Query: pKd; subject: `NLFDWMHFL`
Given back: 8.60

###

Molecular target: HLA-A*30:02
Assay: IEDB peptide-MHC binding, purified MHC/competitive/radioactivity; filed as Kd, often an IC50 or EC50 that approximates it; bounds were set here for any values at or beyond the usual limits of such assays
Conditions: source organism: Mammarenavirus juninense
pKd: −log10 of the molar value.
readout: pKd

Asked: Returns the measured pKd for the input sequence. Input: `FYQKTGEKS`
Given back: ≤ 4.39

###

Target: HLA-A*02:01
Assay: IEDB peptide-MHC binding, purified MHC/direct/fluorescence; filed as Kd, often an IC50 or EC50 that approximates it; bounds were set here for any values at or beyond the usual limits of such assays
Details: source organism: Mammarenavirus lassaense
readout: Kd (nM)
Output spec: scalar in nM, unitless text.

Asked: Given `TLKDAMLQL` , state its recorded Kd.
Given back: 116

###

Biological target: HLA-B*15:17
Assay: IEDB peptide-MHC binding, purified MHC/direct/fluorescence; filed as Kd, often an IC50 or EC50 that approximates it; bounds were set here for any values at or beyond the usual limits of such assays
Conditions: source organism: Brucella abortus
readout: Kd

Asked: Would you mind telling me what Kd value was observed for `GLAEKPNDY` ?
Given back: ≥ 20 µM

###

Biological target: HLA-A*30:01
Experiment: IEDB peptide-MHC binding, purified MHC/competitive/fluorescence; filed as Kd, often an IC50 or EC50 that approximates it; bounds were set here for any values at or beyond the usual limits of such assays
Conditions: source organism: Mycobacterium tuberculosis CDC1551
readout: Kd (nM)
Respond with the bare value in nM.

Asked: Looking for the measured Kd of `ALRSRWRAL` , can you help?
Given back: 132
